Target: RPS10 (Homo sapiens, UniProt P46783)
Construct: made in house; host or cells: E. coli BL-21
Format: binding
Settings: 1Ai conc. 0.25 uM
Label 1 (yes) when RPS10 fluorescence ratio to control is strictly below 1; otherwise label 0 (no).

Quick check: does CN(C)CC1CCn2cc(c3ccccc32)C2=C(C(=O)NC2=O)c2cn(c3ccccc23)CCO1 (centres unmarked) have RPS10 fluorescence ratio to control under 1? 1 (yes)

Quick check: does Cc1ccc(C(=O)c2cc(O)c(O)c([N+](=O)[O-])c2)cc1 have RPS10 fluorescence ratio to control under 1? 0 (no)

Quick check: does CCOc1cc(C(=O)Nc2ccc(Cl)c(-c3nc4ccccc4[nH]3)c2)cc(OCC)c1OCC have RPS10 fluorescence ratio to control under 1? 0 (no)

Quick check: does COc1cccc(Nc2nc(-c3ccc(NC(C)=O)cc3)c(C)s2)c1 have RPS10 fluorescence ratio to control under 1? 1 (yes)

Quick check: does Cc1cc(-n2c(C)cc(-c3csc(N)n3)c2C)no1 have RPS10 fluorescence ratio to control under 1? 1 (yes)

Quick check: does Cn1c(=O)c2ccccc2n2c(CNC(c3ccc4c(c3)CCC4)c3cccs3)nnc12 (centres unmarked) have RPS10 fluorescence ratio to control under 1? 0 (no)

Quick check: does O=C(C=Cc1ccc(Cl)s1)Nc1cccc2ncccc12 have RPS10 fluorescence ratio to control under 1? 1 (yes)

Quick check: does COc1ccc(C=C2CSc3ccc(Cl)cc3C2=O)cc1O have RPS10 fluorescence ratio to control under 1? 1 (yes)

Quick check: does C=CCNC(=O)CN1CCN(Cc2nc3cc(-c4ccc(Cl)cc4)sc3c(=O)[nH]2)CC1 have RPS10 fluorescence ratio to control under 1? 0 (no)

* * *

Consider the following compounds; for each one, report its IC50.
Biological target: eIF1A-RPS10 interaction (Homo sapiens, UniProt P46783+P47813)
Construct: made in house; host or cells: E. coli BL21 (PRSFduet); unpurified lysate supernatant
Sequence (P47813 whole entry, one chain of several): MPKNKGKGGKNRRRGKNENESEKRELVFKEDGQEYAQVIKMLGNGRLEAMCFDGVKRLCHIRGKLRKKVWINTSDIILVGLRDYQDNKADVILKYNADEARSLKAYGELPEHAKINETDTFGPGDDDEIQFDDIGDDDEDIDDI
Assay: Split-Renilla luciferase eIF1A-RPS10 interaction screen, dose-response
Assay type: biochemical
Settings: summary table; read-out: IC50 concentration (µM), IC50 screen
Lab book: enter the figure in µM, no units written.

// query IC50 value for entry Cc1ccc(C)n1-c1cc([N+](=O)[O-])ccc1N1CCN(C(=O)c2ccccc2)CC1 [1Ai-9008] 27

// query IC50 value for entry Cc1ccc(C(=O)c2cc(O)c(O)c([N+](=O)[O-])c2)cc1 [1Ai-5576] 24

// query IC50 value for entry O=S(=O)(c1ccccc1)N1CCN(C2c3ccccc3-c3ccccc32)CC1 [1Ai-9025] 17

// query IC50 value for entry Cc1cc(-n2c(C)cc(-c3csc(N)n3)c2C)no1 [1Ai-6464] 13

// query IC50 value for entry O=C(CSc1nc(-c2ccccc2)cn1-c1ccccc1)NC(=O)Nc1ccccc1 [1Ai-2383] 23

// query IC50 value for entry Cn1c(=O)c2ccccc2n2c(CNC(c3ccc4c(c3)CCC4)c3cccs3)nnc12 (stereo not drawn) [1Ai-7688] 20

// query IC50 value for entry CCOc1cc(C(=O)Nc2ccc(Cl)c(-c3nc4ccccc4[nH]3)c2)cc(OCC)c1OCC [1Ai-5677] 15

// query IC50 value for entry O=C(COc1ccccc1[N+](=O)[O-])NCc1ccc(-c2ccc(Br)cc2)o1 [1Ai-4700] 11

// query IC50 value for entry COc1cccc(Nc2nc(-c3ccc(NC(C)=O)cc3)c(C)s2)c1 [1Ai-1869] 14

// query IC50 value for entry O=C(C=Cc1ccc(Cl)s1)Nc1cccc2ncccc12 [1Ai-4860] 23

// query IC50 value for entry CN(C)CC1CCn2cc(c3ccccc32)C2=C(C(=O)NC2=O)c2cn(c3ccccc23)CCO1 (stereo not drawn) [1Ai-5662] 25

// query IC50 value for entry O=c1cc(CN2CCOCC2)occ1OCCCCCSc1ccnc2cc(C(F)(F)F)ccc12 [1Ai-5730] 24

// query IC50 value for entry C=CCNC(=O)CN1CCN(Cc2nc3cc(-c4ccc(Cl)cc4)sc3c(=O)[nH]2)CC1 [1Ai-1524] 30

// query IC50 value for entry COc1ccc2oc(C(=O)OC(C)C(=O)Nc3sccc3C(N)=O)c(C)c2c1 (stereo not drawn) [1Ai-3044] 10

// query IC50 value for entry COc1ccc(C=C2CSc3ccc(Cl)cc3C2=O)cc1O [1Ai-5175] 16

// query IC50 value for entry CCOC(=O)c1ccsc1NC(=O)CN1C(=O)NC(C)(c2cccc3ccccc23)C1=O (stereo not drawn) [1Ai-1861] 15

// query IC50 value for entry Oc1cc(Cl)ccc1Oc1ccc(Cl)cc1Cl [1Ai-6248] 28

// query IC50 value for entry CN1CCN(S(=O)(=O)c2ccc(N3Cc4cc5c(cc4C4(CCCC4)C3)OCCO5)nc2)CC1 [1Ai-3564] 15
